- testedSystem: T1, human hepcidin (mature, 25 amino acids) (human, mono-biotinylated in the ELISAs and on the KinExA beads (site not stated); unlabelled in solution and on the BIAcore chip)
- T1 construct: the form is named in each assay field; also called rhuHepc; rhHepc
- T1 peptide: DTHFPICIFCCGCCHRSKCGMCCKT
- measurementProtocol: ELISA, mono-biotinylated human hepcidin on Neutravidin plate, pH 6.0
propertyLabel: EC50 (ng/mL)
Numeric answer only, unit ng/mL assumed.

Look over these answered cases.
15E1 A99H A107H (antibody, V domains shown, Double histidine mutant of 15E1; constant regions as in wild-type 15E1; also called A107H (heavy chain)/A99H (heavy chain)) VH: QVQLVESGGGVVQPGRSLRLSCAASGFTFSSYGMHWVRQAPGKGLEWVAVIWYAESNKYYADSVKGRFTISRDNSKNTLYLQMNSLRAEDTAVYYCARHQEGIAPDHFDIWGQGTMVTVSS VL: SYELTQPPSVSVSPGQTATITCSGDKLGERYACWYQQRPGQSPVLVIYQDSKRPSGIPERFSGSNSGNTATLTISGTQAMDEADYFCQAWYSSTNVLFGGGTKLTVL = 5.5
15E1 A107H (antibody, V domains shown, Histidine mutant of 15E1, transiently expressed in 293-6E cells; constant regions as in wild-type 15E1; also called A107H (heavy chain)) VH: QVQLVESGGGVVQPGRSLRLSCAASGFTFSSYGMHWVRQAPGKGLEWVAVIWYAESNKYYADSVKGRFTISRDNSKNTLYLQMNSLRAEDTAVYYCARAQEGIAPDHFDIWGQGTMVTVSS VL: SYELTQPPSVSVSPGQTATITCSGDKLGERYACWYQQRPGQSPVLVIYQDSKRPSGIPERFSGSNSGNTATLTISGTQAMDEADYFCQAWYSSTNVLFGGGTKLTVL = 3.6

Switching to the query record.
Bench note: what EC50 did 15E1 W52H (antibody, V domains shown, Histidine mutant of 15E1, transiently expressed in 293-6E cells; constant regions as in wild-type 15E1; also called W52H (heavy chain)) VH: QVQLVESGGGVVQPGRSLRLSCAASGFTFSSYGMHWVRQAPGKGLEWVAVIHYAESNKYYADSVKGRFTISRDNSKNTLYLQMNSLRAEDTAVYYCARAQEGIAPDAFDIWGQGTMVTVSS VL: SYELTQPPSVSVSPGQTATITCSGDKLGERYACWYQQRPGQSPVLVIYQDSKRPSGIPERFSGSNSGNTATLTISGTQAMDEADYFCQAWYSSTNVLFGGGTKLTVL show? 5.8

Source: patent US20110150888A1
